The reported measurements were obtained from patent US11524966B1.

target: USP28 (His-tagged USP28-FL-mammalian) (Homo sapiens, UniProt Q96RU2); construct: Expression of USP28 (1-1077)-TEV-6*His (pTT5 vector); made in house; host or cells: Expi293f cells (pTT5 vector); experiment: Ubiquitin-Rhodamine 110 Assay for USP28 Activity, Example A-1(a); format: biochemical; conditions: Ubiquitin-Rhodamine 110 assay, Example A-1(a); read-out: USP28 A-1(a) IC50 range
Sequence (Q96RU2 whole entry): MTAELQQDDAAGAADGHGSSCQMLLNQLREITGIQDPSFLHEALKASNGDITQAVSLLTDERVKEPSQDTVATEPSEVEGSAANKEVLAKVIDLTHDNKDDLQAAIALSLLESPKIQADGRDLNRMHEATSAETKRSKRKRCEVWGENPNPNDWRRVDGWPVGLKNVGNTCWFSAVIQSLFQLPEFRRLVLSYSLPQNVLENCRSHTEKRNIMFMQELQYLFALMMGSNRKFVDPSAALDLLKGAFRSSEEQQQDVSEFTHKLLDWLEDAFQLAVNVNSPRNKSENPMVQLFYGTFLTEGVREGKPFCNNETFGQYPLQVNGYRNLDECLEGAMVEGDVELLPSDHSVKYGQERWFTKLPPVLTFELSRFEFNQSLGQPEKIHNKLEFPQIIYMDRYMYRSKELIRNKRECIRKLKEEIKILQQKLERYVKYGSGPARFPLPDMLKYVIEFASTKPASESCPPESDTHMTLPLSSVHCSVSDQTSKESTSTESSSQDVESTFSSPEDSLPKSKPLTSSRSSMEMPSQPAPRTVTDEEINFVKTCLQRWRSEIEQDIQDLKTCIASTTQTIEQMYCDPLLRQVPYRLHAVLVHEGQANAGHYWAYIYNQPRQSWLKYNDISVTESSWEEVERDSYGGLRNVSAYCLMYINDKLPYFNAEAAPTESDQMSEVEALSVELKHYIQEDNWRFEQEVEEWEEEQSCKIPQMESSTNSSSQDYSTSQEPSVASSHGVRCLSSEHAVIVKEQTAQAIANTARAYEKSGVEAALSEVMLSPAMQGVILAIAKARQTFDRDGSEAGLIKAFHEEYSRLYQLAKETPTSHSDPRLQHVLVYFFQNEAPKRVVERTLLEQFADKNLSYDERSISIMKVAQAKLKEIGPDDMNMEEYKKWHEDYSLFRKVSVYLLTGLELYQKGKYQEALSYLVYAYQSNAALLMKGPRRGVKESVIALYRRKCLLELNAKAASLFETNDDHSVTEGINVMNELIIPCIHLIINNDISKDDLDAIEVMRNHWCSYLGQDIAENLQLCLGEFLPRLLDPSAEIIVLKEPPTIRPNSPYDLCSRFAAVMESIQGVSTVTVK
pIC50: −log10 of the molar value.
observation-type: pIC50

Asked: USP28 (His-tagged USP28-FL-mammalian) (Homo sapiens, UniProt Q96RU2) / pIC50 / `Cc1ccc2c(N)c(C(=O)N[C@H]3COc4cc([C@@H]5CCNC[C@H]5O)ccc4C3)sc2n1` : value?
Given back: 7.30 to 9.00

Asked: Same thing, different compound: `Cc1cc(C)c2c(N)c(C(=O)N[C@H]3CCc4nc(N5CC[C@@H]6CNC[C@@H]65)ccc4C3)sc2n1`
Given back: 7.30 to 9.00

Asked: Same thing, different compound: `Cc1ccc2c(N)c(C(=O)N[C@@H]3Cc4ccc(N5CCNCC5)nc4[C@H](C)C3)sc2n1`
Given back: 5.70 to 6.70

Asked: Same thing, different compound: `Cc1ccc2c(N)c(C(=O)N[C@H]3COc4cc(N5C[C@H](N)[C@]6(CCO6)C5)ccc4C3)sc2n1`
Given back: 7.30 to 9.00

Asked: Same thing, different compound: `CO[C@H]1CN(c2cc3c(c(F)c2F)C[C@@H](NC(=O)c2sc4nc(C)ccc4c2N)CO3)C[C@@H]1N`
Given back: 7.30 to 9.00

Asked: Same thing, different compound: `Cc1cc(C)c2c(N)c(C(=O)N[C@H]3COc4c(C#N)c(N5CC6CCC(C5)N6)cc(F)c4C3)sc2n1`
Given back: 7.30 to 9.00

Asked: Same thing, different compound: `Cc1ccc2c(N)c(C(=O)N[C@H]3CCc4nc(N5C[C@H](N)[C@@H](C(F)(F)F)C5)ccc4C3)sc2n1`
Given back: 6.70 to 7.30
